Test system: Pieris brassicae
assay text: Biological activity on Pieris brassicae (Lepidoptera)
Assay type: in vivo
measurement parameters: 48 h, 0.01%o, Table 5, read-out: Activity (mortality class), Pieris B.
measured metric: mortality at 0.001 %

Prompt: Record request: mortality at 0.001 % value, item CC=C(Br)c1nc(OP(=S)(OCC)OCC)n(C)n1
Completion: 10 to 69%

Prompt: Entry under review: CCOP(=S)(OCC)Oc1nc(C=C(Cl)Cl)nn1CC . Reported mortality at 0.001 %?
Completion: 100%

Prompt: Which measured mortality at 0.001 % value corresponds to CCCOP(=S)(OCCC)Oc1nc(C=C(Cl)Cl)nn1C(C)C ?
Completion: 10 to 69%

Prompt: Consider the molecule CCOP(=S)(OCC)Oc1nc(-c2ccccc2)nn1C [M 8172, reference compound] and give its measured mortality at 0.001 %.
Completion: 0 to 9%

Prompt: State the recorded mortality at 0.001 % for this entry: CCOP(=S)(OCC)Oc1nc(C=C(SC)SC)nn1C
Completion: 0 to 9%

----------
assay text: Toxicity on albino rats by oral administration
measurement parameters: rat, in vivo
Provide the reported log10 LD50 of each item.
Lab note - LD50 converted to log10 from values in mg/kg.

Prompt: GET /values?readout=log10 LD50&item= CCOP(=S)(OCC)Oc1nc(C(Cl)=C(Cl)Cl)nn1C
Completion: 3.08

Prompt: Sample CCOP(=S)(OCC)Oc1nc(C=C(Cl)Cl)nn1C — what was its log10 LD50?
Completion: 3.20

Prompt: Would you mind telling me what log10 LD50 value was observed for CCOP(=S)(OCC)Oc1nc(C(C)=C(Cl)Cl)nn1C ?
Completion: 3.23

Prompt: Which log10 LD50 is listed for CC=C(Br)c1nc(OP(=S)(OCC)OCC)n(C)n1 ?
Completion: 3.00

Prompt: Could you tell me which log10 LD50 is on file for CCOP(=S)(OCC)Oc1nc(Cl)n(C(C)C)n1 [Miral®, reference compound] ?
Completion: 1.78

Prompt: What value of log10 LD50 has been recorded for this entry: CC=C(Cl)c1nc(OP(=S)(OCC)OCC)n(C)n1
Completion: 3.15

----------
Test system: Tetranychus urticae
assay text: Biological activity on adults of Tetranychus urticae (Acari)
Type: in vivo
measurement parameters: 24 h, read-out: Activity (mortality class), Tetranychus U. (adults)
Exercise: state measured mortality at 0.001 % for each of the compounds provided.

Prompt: # mortality at 0.001 % lookup, item CC=Cc1nc(OP(=S)(OCC)OCC)n(C)n1 [M 8119]
Completion: 70 to 99%

Prompt: Item under review: C=CCn1nc(C=C(Cl)Cl)nc1OP(=S)(OCC)OCC [M 8764] . Reported mortality at 0.001 %?
Completion: 100%

Prompt: Field request: mortality at 0.001 % | item: CCOP(=S)(OCC)Oc1nc(-c2ccccc2)nn1C [M 8172, reference compound]
Completion: 70 to 99%

Prompt: Fill in: mortality at 0.001 % of C=C(C)c1nc(OP(=S)(OCC)OCC)n(C)n1 [M 8593] is ___
Completion: 10 to 69%

Prompt: Quick one: mortality at 0.001 % for CCOP(=S)(OCC)Oc1nc(C(C)=C(Cl)Cl)nn1CC [M 9141] ?
Completion: 10 to 69%
